biological target: HLA-C*14:02; assay: IEDB peptide-MHC binding, purified MHC/direct/fluorescence; filed as Kd, often an IC50 or EC50 that approximates it; bounds were set here for any values at or beyond the usual limits of such assays; details: source organism: Mycobacterium tuberculosis variant bovis BCG str. Pasteur 1173P2
Endpoint Name: Kd (nM)

INSERT INTO assay_data (sequence_input, measurement_target, measurement) VALUES
  ('APINSATAM', 'HLA-C*14:02', 321);

###

molecular target: HLA-A*23:01; assay: IEDB peptide-MHC binding, purified MHC/competitive/radioactivity; filed as Kd, often an IC50 or EC50 that approximates it; bounds were set here for any values at or beyond the usual limits of such assays; conditions: source organism: Dengue virus 4 Philippines/H241/1956
Endpoint Name: Kd (nM)

INSERT INTO assay_data (sequence_input, measurement_target, endpoint_name, unit_string, measurement) VALUES
  ('LLMRTTWAF', 'HLA-A*23:01', 'Kd', 'nM', 75.4),
  ('TWLVHKQWFL', 'HLA-A*23:01', 'Kd', 'nM', 124);

###

biological target: HLA-B*51:01; assay: IEDB peptide-MHC binding, purified MHC/direct/fluorescence; filed as Kd, often an IC50 or EC50 that approximates it; bounds were set here for any values at or beyond the usual limits of such assays; settings: source organism: Encephalitozoon cuniculi GB-M1
pKd: −log10 of the molar value.
Endpoint Name: pKd

INSERT INTO results (sequence_input, measurement) VALUES
  ('MPFDPSELV', 7.13);

###

biological target: HLA-B*40:01; assay: IEDB peptide-MHC binding, purified MHC/competitive/fluorescence; filed as Kd, often an IC50 or EC50 that approximates it; bounds were set here for any values at or beyond the usual limits of such assays; settings: source organism: Rickettsia bellii OSU 85-389
Endpoint Name: Kd

INSERT INTO assay_data (sequence_input, measurement_target, endpoint_name, measurement) VALUES
  ('EDFEIFYNL', 'HLA-B*40:01', 'Kd', '≥ 5 µM');

###

biological target: HLA-A*02:06; assay: IEDB peptide-MHC binding, purified MHC/competitive/radioactivity; filed as Kd, often an IC50 or EC50 that approximates it; bounds were set here for any values at or beyond the usual limits of such assays; settings: source organism: Homo sapiens
pKd: −log10 of the molar value.
Endpoint Name: pKd

INSERT INTO measurements (sequence_input, relational_operator, measurement) VALUES
  ('KLKSMEAEMI', '=', 5.11),
  ('ELADKVTKL', '≤', 4.41);

###

target: HLA-A*02:01; assay: IEDB peptide-MHC binding, purified MHC/competitive/fluorescence; filed as Kd, often an IC50 or EC50 that approximates it; bounds were set here for any values at or beyond the usual limits of such assays; details: source organism: Yersinia pestis Nepal516
pKd: −log10 of the molar value.
Quick reference for pKd among some sequences
Endpoint Name: pKd

INSERT INTO measurements (sequence_input, measurement) VALUES
  ('MTSERTLAV', 7.24),
  ('FAFKLSFAI', 6.00),
  ('MLMAASRAL', 8.96);

###

biological target: HLA-B*27:05; assay: IEDB peptide-MHC binding, purified MHC/direct/fluorescence; filed as Kd, often an IC50 or EC50 that approximates it; bounds were set here for any values at or beyond the usual limits of such assays; conditions: source organism: Homo sapiens
Endpoint Name: Kd (nM)

INSERT INTO results (sequence_input, measurement) VALUES
  ('GRIDKPILK', 790);
